Tested on: SKOV3
TEST PROTOCOL: Primary qHTS to identify gynecologic anti-cancer compounds using libraries of approved drugs and bioactive compounds (AID 1345084); also: nearly all actives have a fitted effect of over 55% in size
APPLIED CONDITIONS: Gynecologic cancer cell panel viability, ATPlite luminescence, 48 h; series mostly up to 57.5 µM
Inconclusive results are not listed. The source made the active and inactive calls. Calls follow the shape of the dose curve; as a rule, active = well fitted cell-killing curve with a large enough effect; inconclusive = small, poorly fitted or top-dose-only effect, or effect the other way; inactive = flat fitted curve, though single readings scatter.
Lab note: assign the record to one of active, inactive

Please review the following examples before continuing.
MOLECULE	LABEL CLASS
O=C(NCc1cccs1)c1cc2nc(-c3ccco3)cc(C(F)(F)Cl)n2n1	inactive
C=C1/C(=C/C=C2\CCC[C@]3(C)[C@@H]([C@H](C)/C=C/[C@H](O)C4CC4)CC[C@@H]23)C[C@@H](O)C[C@@H]1O	inactive
CC1=C(C(=O)OC2CCCCC2)C(c2ccc([N+](=O)[O-])cc2)C2=C(CC(C)(C)CC2=O)N1 (centres undefined)	inactive
COC(=O)CC[C@@H](C)C1CCC2C3CCC4C[C@H](OC(C)=O)CCC4(C)C3C[C@H](O)C21C (some centres undefined)	inactive
C#CCNCc1cc2cc(OCc3ccccc3)ccc2[nH]1	inactive
Cc1ccnc(NC(=O)C(C)c2cccc(C(=O)c3ccccc3)c2)c1 (centres undefined)	inactive
COc1ccc(Sc2ccc(NC(=O)c3ccccc3Cl)cc2C#N)cc1	inactive
Cn1sc(=O)n(Cc2ccccc2)c1=O	inactive
COc1cc2c(cc1-c1c(C)noc1C)ncc1[nH]c(=O)n(C(C)c3ccccn3)c12 (centres undefined)	active
Cc1c(C(=O)Nc2ccc(N3CCC(N4CCOCC4)CC3)c(C#N)c2)cnn1-c1ccc(Cl)cc1	inactive

Qu. Write down the call the test reported for this molecule. Item: C=C[C@@]12COC(=O)C(=C)[C@@H]1[C@@H](O)[C@H](C(=C)C(=O)OC)[C@@H](O)C2
Ans. inactive

---

System: Tov112D
TEST PROTOCOL: Primary qHTS to identify gynecologic anti-cancer compounds using libraries of approved drugs and bioactive compounds (AID 1345084); also: nearly all actives have a fitted effect of over 55% in size
APPLIED CONDITIONS: Gynecologic cancer cell panel viability, ATPlite luminescence, 48 h; series mostly up to 57.5 µM
Records with an inconclusive call do not appear. The source made the active and inactive calls. The call rests on the fitted dose curve; in most records, active means well fitted cell-killing curve with a large enough effect; inconclusive means small, poorly fitted or top-dose-only effect, or effect the other way; inactive means flat fitted curve, though single readings scatter.
Lab note: assign the record to one of 1 for active, 0 for inactive

Qu. Write down the call the test reported for this compound. Item: CC(=O)NC(C(=O)O[C@H]1CCC(C)(C)[C@@H]2CC=C3C(=O)OCC3(O)[C@@]12C)C(C)C (stereo partly drawn)
Ans. 0

---

Recorded activity change, negative = cytotoxicity, one value per entry.
Tested on: SKOV3
TEST PROTOCOL: Primary qHTS to identify gynecologic anti-cancer compounds using libraries of approved drugs and bioactive compounds (AID 1345084); also: nearly all actives have a fitted effect of over 55% in size; as to activity change, negative = cytotoxicity: % is scaled to controls: 0 for no effect and ±100 for the full control effect
APPLIED CONDITIONS: Gynecologic cancer cell panel viability, ATPlite luminescence, 48 h; series mostly up to 57.5 µM
Results filed as inconclusive are left out. Calls of active or inactive are those of the source. Calls follow the shape of the dose curve; as a rule, active = well fitted cell-killing curve with a large enough effect; inconclusive = small, poorly fitted or top-dose-only effect, or effect the other way; inactive = flat fitted curve, though single readings scatter.

// solved cases for activity change, negative = cytotoxicity follow
COMPOUND	TEST VALUE
CC(=O)OC1CC(C)(C(=O)O)CC2C3=CC(=O)C4C5(C)CCC(OC6OC(C(=O)O)C(O)C(O)C6OC6OC(C(=O)O)C(O)C(O)C6O)C(C)(C)C5CCC4(C)C3(C)CCC12C (stereo not drawn)	0% [at 11.6 µM] (inactive)
C[C@@H]1O[C@@H](O[C@H]2[C@H](OC(=O)[C@]34CCC(C)(C)C[C@H]3C3=CCC5[C@@]6(C)C[C@H](O)[C@H](O[C@@H]7O[C@H](C(=O)O)[C@@H](O)[C@H](O)[C@H]7O)[C@@](C)(CO)C6[C@H](O)C[C@@]5(C)[C@]3(C)C[C@H]4O)O[C@@H](CO)[C@@H]2O)[C@H](O)[C@H](O)[C@H]1O[C@@H]1OC[C@@H](O)[C@H](O[C@H]2OC[C@](O)(CO)[C@H]2O)[C@H]1O (stereo partly drawn)	-5.43% [at 6.55 µM] (inactive)

Qu. Consider the compound C[C@@H]1O[C@@H](O[C@H]2[C@@H](OC(=O)[C@]34CCC(C)(C)CC3C3=CCC5[C@@]6(C)C[C@H](O)[C@H](O[C@@H]7O[C@H](CO)[C@@H](O)[C@H](O)[C@H]7O[C@@H]7OC[C@@H](O)[C@H](O)[C@H]7O)[C@@](C)(C(=O)O)C6CC[C@@]5(C)[C@]3(C)CC4)OC[C@H](O)[C@@H]2O)[C@H](O)[C@H](O)[C@H]1O[C@@H]1OC[C@@H](O)[C@H](O)[C@H]1O (stereo partly drawn) . State its measured activity change, negative = cytotoxicity.
Ans. -18.3% [at 6.55 µM] (inactive)

---

Tested on: HaCat
TEST PROTOCOL: Cytotoxic Profiling of Annotated Libraries Using Quantitative High-Throughput Screening (AID 1296008); also: nearly all actives have a fitted effect of over 60% in size; also: potency is read from the fitted curve at half-maximal effect
APPLIED CONDITIONS: Five cell lines viability, CellTiter-Glo ATP luminescence, 48-72 h
Records with an inconclusive call do not appear. Calls of active or inactive are those of the source. Calls follow the shape of the dose curve; as a rule, active = well fitted inhibition curve with a large enough effect; inconclusive = small, poorly fitted or top-dose-only effect; inactive = flat fitted curve, though single readings scatter.
ENDPOINT: Potency

// solved cases for Potency follow
MOLECULE	Potency
O=C(COc1ccc2ccccc2c1Br)Nc1cccnc1	inactive
CCOc1nc(NC(=O)Cc2cc(OC)ccc2OC)cc(N)c1C#N	inactive
C/C(=N\N=C(N)N)c1cc(NC(=O)CCCCCCCCC(=O)Nc2cc(/C(C)=N/N=C(N)N)cc(/C(C)=N/N=C(N)N)c2)cc(/C(C)=N/N=C(N)N)c1	inactive
CN1CCC(NC(=O)c2cc(-c3c(O)cc(O)cc3Oc3ccc([N+](=O)[O-])cc3)on2)CC1	1.46 µM (active)
COc1ccc(CCO[C@@H]2O[C@H](CO[C@H]3OC[C@](O)(CO)[C@H]3O)[C@@H](OC(=O)/C=C/c3ccc(O)c(O)c3)[C@H](O[C@@H]3O[C@@H](C)[C@H](O)[C@@H](O)[C@H]3O)[C@H]2O)cc1OC	inactive

Qu. Consider the molecule Cn1c(=O)c(F)c(Nc2ccc(I)cc2F)c2c(=O)n(CC(O)CO)cnc21 (configuration not stated) . State its measured Potency.
Ans. 6.51 µM (active)

Qu. Consider the molecule O=C(c1ccc(OC(F)F)c(C#Cc2ccccn2)c1)N1Cc2cccnc2C1 . State its measured Potency.
Ans. inactive

Qu. Consider the molecule CNc1cc2[nH]c(=O)n(-c3ccc(NC(=O)NS(=O)(=O)c4ccc(Cl)s4)cc3)c(=O)c2cc1F . State its measured Potency.
Ans. inactive

---

Tested on: OV90
TEST PROTOCOL: Primary qHTS to identify gynecologic anti-cancer compounds using libraries of approved drugs and bioactive compounds (AID 1345084); also: nearly all actives have a fitted effect of over 55% in size
APPLIED CONDITIONS: Gynecologic cancer cell panel viability, ATPlite luminescence, 48 h; series mostly up to 57.5 µM
Inconclusive results are not listed. Calls of active or inactive are those of the source. The call rests on the fitted dose curve; in most records, active means well fitted cell-killing curve with a large enough effect; inconclusive means small, poorly fitted or top-dose-only effect, or effect the other way; inactive means flat fitted curve, though single readings scatter.
ENDPOINT: outcome

COMPOUND	TEST VALUE
C=C1C(=O)OC2C=C(C)CC/C=C(\CO)CC(O)C12 (stereo not drawn)	inactive
CC(=O)O[C@H]1C[C@@](O)(C(C)C)[C@@H]2[C@@H](OC(=O)c3ccc(O)cc3)CC(C)=CC[C@@]12C	inactive
CNC(C)C(=O)NC(C(=O)N1CCCC1C(=O)Nc1snnc1-c1ccccc1)C1CCCCC1 (stereo not drawn)	inactive

---

System: OV90
TEST PROTOCOL: Primary qHTS to identify gynecologic anti-cancer compounds using libraries of approved drugs and bioactive compounds (AID 1345084); also: nearly all actives have a fitted effect of over 55% in size
APPLIED CONDITIONS: Gynecologic cancer cell panel viability, ATPlite luminescence, 48 h; series mostly up to 57.5 µM
Results filed as inconclusive are left out. Active and inactive are the calls of the source. The call rests on the fitted dose curve; in most records, active means well fitted cell-killing curve with a large enough effect; inconclusive means small, poorly fitted or top-dose-only effect, or effect the other way; inactive means flat fitted curve, though single readings scatter.
Lab note: assign the record to one of label 1 (active), label 0 (inactive)

MOLECULE	TGT	LABEL CLASS
C=C1/C(=C/C=C2\CCC[C@]3(C)[C@@H]([C@H](C)/C=C/[C@H](O)C4CC4)CC[C@@H]23)C[C@@H](O)C[C@@H]1O	OV90	label 0
Cc1cc(F)ccc1-c1nc(NCCN=C(N)NC#N)nc2c1ccc(=O)n2-c1c(F)cccc1F	OV90	label 0
CCCC1(CCC)CCC2(CCN(CCCN(CC)CC)C2)CC1	OV90	label 1
CCOc1cc(C(C)(C)C)ccc1C1=NC(C)(c2ccc(Cl)cc2)C(C)(c2ccc(Cl)cc2)N1C(=O)N1CCN(CCCS(C)(=O)=O)CC1 (configuration not stated)	OV90	label 0
Cc1cc2ncc(C(=O)NCC(C)(C)NCC(=O)N3CCC[C@H]3C#N)cn2n1	OV90	label 0

Shift focus to the following entry.
Qu. Write down the call the test reported for this molecule. Item: C/C=C(\C)C(=O)O[C@H]1C=C(CO)C(=O)[C@H](OC(C)=O)[C@H]1C(C)C
Ans. label 0

---

TEST PROTOCOL: P-glycoprotein substrates identified in KB-8-5-11 adenocarcinoma cell line, qHTS therapeutic library screen (AID 1346987); also: nearly all actives have a fitted effect of over 65% in size
APPLIED CONDITIONS: KB-8-5-11 (P-gp overexpressing) viability, CellTiter-Glo, 72 h; series mostly up to 44.5 µM
Records with an inconclusive call do not appear. Active and inactive are the calls of the source. The call rests on the fitted dose curve; in most records, active means well fitted inhibition curve with a large enough effect; inconclusive means small, poorly fitted or top-dose-only effect; inactive means flat fitted curve, though single readings scatter.
Lab note: assign the record to one of TRUE for active, FALSE for inactive

Please review the following examples before continuing.
COMPOUND	LABEL CLASS
Nc1nc(OCc2cc(Br)cs2)c2[nH]cnc2n1	FALSE
C=C(C(=O)OC[C@H]1O[C@@H](OC(=O)/C=C/c2ccccc2)[C@H](O)[C@@H](O)[C@@H]1O)C(O)CO (stereo partly drawn)	FALSE
Cn1cc(-c2ccc(F)c(C(F)(F)F)c2)nc1C1CCN(c2ncnc3[nH]ncc23)CC1	FALSE
CC1(C)C2CCC(CO[C@@H]3O[C@H](CO[C@@H]4OC[C@](O)(CO)[C@H]4O)[C@@H](O)[C@H](O)[C@H]3O)C1C2 (stereo partly drawn)	FALSE
O=C(Nc1ccc(CN2CCOCC2)cc1)c1ccc(-c2cccc(Cl)c2)o1	TRUE
CCOC(=O)c1cnn(-c2ccccc2)c1NC(=O)c1cc2nc(-c3ccco3)cc(C(F)(F)Cl)n2n1	FALSE
CN(C)[C@@H]1CCc2[nH]c3ccc(NC(=O)c4ccc(F)cc4)cc3c2C1	FALSE
C[C@]12CC[C@@H]3c4ccc(OS(=O)(=O)O)cc4CC[C@H]3[C@@H]1CCC2=O	FALSE
O=C(Nc1nc2cc(C(F)(F)F)cc(NC3CC3)n2n1)c1cccnc1	TRUE
OC1CCC(Nc2nc(-c3ccccc3)nc3[nH]ccc23)CC1 (stereo not drawn)	FALSE

Qu. Write down the call the test reported for this compound. Item: COc1ccc([C@H]2OC[C@H]3O[C@@H](O[C@H]4[C@@H]2NC[C@@H]4O)[C@H](O)[C@H]3O)cc1
Ans. TRUE

Qu. Write down the call the test reported for this compound. Item: CN(C)C(=O)Nc1cccc(-c2ccc(N(C)C)cc2)c1
Ans. FALSE

Qu. Write down the call the test reported for this compound. Item: Cc1cn(CCN2CCN(c3ccccc3-c3cc(C#N)cc(C(=O)NCCCN4CCCC4)c3)CC2)c2ccccc12
Ans. TRUE

Qu. Write down the call the test reported for this compound. Item: O=C1c2ccc(Nc3ccc(F)cc3F)cc2CCc2ccc(OCC(O)CO)cc21 (stereo not drawn)
Ans. TRUE

Qu. Write down the call the test reported for this compound. Item: C=C1C(=O)OC2C=C(C)CC/C=C(\CO)CC(O)C12 (stereo not drawn)
Ans. FALSE

Qu. Write down the call the test reported for this compound. Item: CCNC(=O)Nc1ccc(-c2nc3c(c(N4CCOCC4C)n2)CCN(C2COC2)C3)cc1 (stereo not drawn)
Ans. TRUE

Where these numbers come from: PubChem BioAssay (NCATS)
